- tested.on: Carbonic anhydrase 4 (Bos taurus)
- Sequence (Q95323 whole entry): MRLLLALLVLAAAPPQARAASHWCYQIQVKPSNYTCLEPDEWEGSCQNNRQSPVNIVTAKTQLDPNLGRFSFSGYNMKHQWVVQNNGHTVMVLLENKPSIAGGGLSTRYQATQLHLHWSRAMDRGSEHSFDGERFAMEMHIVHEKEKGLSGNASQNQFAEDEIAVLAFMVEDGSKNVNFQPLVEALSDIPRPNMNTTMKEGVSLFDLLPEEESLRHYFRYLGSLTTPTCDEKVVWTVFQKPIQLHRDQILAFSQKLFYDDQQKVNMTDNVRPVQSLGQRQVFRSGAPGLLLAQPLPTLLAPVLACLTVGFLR
measurement.name: Ki (nM)

Completed entries (count: 2):
NS(=O)(=O)c1ccc(CNS(=O)(=O)C(F)(F)F)cc1
24500
NS(=O)(=O)c1ccc(CCNS(=O)(=O)c2c(F)c(F)c(F)c(F)c2F)cc1
230

a. NS(=O)(=O)c1ccc(Nc2ccnc(NS(=O)(=O)C(F)(F)C(F)(F)C(F)(F)C(F)(F)F)n2)cc1
b. NS(=O)(=O)c1nc2ccc(OCCOS(=O)(=O)C(F)(F)F)cc2s1
c. NS(=O)(=O)c1ccc(NC(=O)C(F)(F)C(F)(F)C(F)(F)C(F)(F)C(F)(F)C(F)(F)C(F)(F)C(F)(F)F)c(F)c1
d. NS(=O)(=O)c1ccc(Nc2ccnc(NC(=O)c3c(F)c(F)c(F)c(F)c3F)n2)cc1
Problem: Parameters: sort_field (Ki), sort_dir (desc). Answer by writing out the labels in the requested order.
Result: c, d, a, b
(c: 550 nM, d: 62 nM, a: 30 nM, b: 7 nM)
